Value source: patent US20220251215A1

Reported ratio of MFI, pulsed to unpulsed is given for each of the following binders.
molecular target: HLA-A2 on T2 cells pulsed with MAGEH1: 90-98 peptide (human); assay: flow cytometry, 10 ug/ml, pulsed T2 cells
Write the number in ratio without appending the unit.

The binder mAb24958N (antibody, human IgG4 S228P, kappa, V domains shown) VH: QVQLQESGPGLVKPSQTLSLTCTVSGGSIISDGYYWSWIRQHPGKGLEWIGYVDYSGNTYYNPSLKSRIIMSVDTSKNQFSLKLTSVTAADTAVYFCVREGPLRDAFEIWGQGTMVTVSS VL: DIQMTQSPSSLSASVGDRVTITCRTSQSISRYLNWYQQKPGKAPKLLIFAASSLQSGVPSRFSGSGSGADFTLTISSLQPEDFATYYCQQSYSTPPITFGQGTRLEIKR showed ratio of MFI, pulsed to unpulsed equal to 0.5

Notebook: mAb28128P (antibody, human IgG4 S228P, kappa, V domains shown) VH: EVQLVESGGGVVQPGGSLRLSCAASGFIFDDYAMHWVRQVPGKGLEWISLSSGGGGGTYYADPVKGRFTISRDNSKNSLHLQMNSLRAEDTASYYCAKDMVFGVVTPDFFFAMDVWGQGTTVTVSS VL: DIQMTQSPSSLSASVGDRVTITCRASQSISTYLNWYQQKPGKAPKLLIYGASSLQRGVPSRFSGSGSGTDFTLTISSLQPEDFATYYCQQTYSTPPITFGQGTRLEIKR , ratio of MFI, pulsed to unpulsed read as 0.5

In plain terms, mAb28037P2 (antibody, human IgG4 S228P, kappa, V domains shown) VH: QVQLQESGPGLVKPSETLSLTCTVSGDSISVYYWTWIRQPPGKGLEWIGYVHYTGYTNYNPSLKSRVTMSVDTAKKQISLKVRSVTAADTAVYYCARTIPAAAHYYHGTDVWGPGTTVTVSS VL: DIQMTQSPSSLSASVGDRVTITCQANQDIRKYLNWYQQKSGKAPTLLIYEASNLETGAPSTFSGSGSGTEFTFTISSLRPEDIATYYCQQYESLPLTFGGGTKVEIKR has a documented ratio of MFI, pulsed to unpulsed of 0.4

ratio of MFI, pulsed to unpulsed reading for mAb29814P (antibody, human IgG4 S228P, kappa, V domains shown) VH: QVQLVESGGGVVQPGRSLRLSCVASGFTFSSYGMHWVRQAPGKGLEWVAVIWYVGSNKYYGDSVKGRFTISRDNSKNTLYLQMNSLRAEDTAVYYCARDLIADRPGYYYNGMDVWGQGTTVTVSS VL: EIVMTQSPVTLFVSPGERATLSCRASQSVNTNLAWYQQQPGQAPRLLIHGASTRPTGVPARFSGSGSGTEFTLIISSLQSEDFAVYYCQQYNNWPPWTFGQGTKVEIKR : 0.4

The binder listed as mAb24959N (antibody, human IgG4 S228P, kappa, V domains shown) VH: QLQLLESGPGLVKPSETLSLICTVSGGSIRGSSYYWGWIRQPPEKGLEWIGSIYSSGSTYYNPSLKSRVTISADTSKNQFSLKLSSVTAADTAVYYCARHGGITAVQLEFDPWGQGTLVTVSS VL: DIQMTQSPSSLSASVGDRVTITCQASQDISNYLKWYQQKPGKAPKILIHDASNLEIGVPSRFSGSGAGTDFIFTISSLQPEDIGTYYCQQYDNLPITFGQGTRLEIKR has a reported ratio of MFI, pulsed to unpulsed of 0.4
